Cited source: BindingDB's records for doi:10.7270/Q2ZC817P

assayed-target: Sphingosine 1-phosphate receptor 1 (Homo sapiens, UniProt P21453)
Sequence (P21453 whole entry): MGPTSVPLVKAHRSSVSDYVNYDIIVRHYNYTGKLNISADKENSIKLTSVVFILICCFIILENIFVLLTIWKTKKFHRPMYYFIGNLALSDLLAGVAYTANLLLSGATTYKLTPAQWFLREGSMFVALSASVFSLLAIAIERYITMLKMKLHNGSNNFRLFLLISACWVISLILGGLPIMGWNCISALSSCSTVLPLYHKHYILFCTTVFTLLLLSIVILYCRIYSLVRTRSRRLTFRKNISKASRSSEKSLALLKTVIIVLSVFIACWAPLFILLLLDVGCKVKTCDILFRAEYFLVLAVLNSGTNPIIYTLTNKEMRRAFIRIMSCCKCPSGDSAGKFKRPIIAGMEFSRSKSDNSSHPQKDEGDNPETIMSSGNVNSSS
test-name: potentiators of S1P1 agonist response, dose response, cell-based, potentiator mode, 60K MLSMR set (AID 466)
Hi! Could you tag entries with EC50 below 3 µM as YES, and those at or above as NO? Much appreciated.

molecule: O=S1(=O)C=C(Sc2nc3cc(Cl)ccc3o2)c2ccccc21
category-label: NO

molecule: O=C(CCN1CCc2ccccc2CC1)c1ccc2c(c1)OCCO2
category-label: NO

molecule: CCOc1cc(C2NCc3ccccc3-n3cccc32)ccc1O (stereo unspecified)
category-label: NO

molecule: Clc1ccccc1C1=Nn2c(nnc2-c2ccncc2)SC1
category-label: NO

molecule: Fc1ccc2[nH]c3c(N4CCN(Cc5ccc6c(c5)OCO6)CC4)ncnc3c2c1
category-label: YES

molecule: Cc1ccc(C(C)C)c(OCc2nc(-c3nonc3N)no2)c1
category-label: YES

molecule: O=C(CSc1nnc(Cc2csc(Nc3cccc(Cl)c3)n2)o1)N1CCc2ccccc21
category-label: NO

molecule: COc1ccc(-c2nc(-c3ccccc3OC)no2)cc1OC
category-label: YES

molecule: O=C(Nc1ccc(S(=O)(=O)NCc2ccco2)cc1)c1ccc2ccccc2n1
category-label: NO

molecule: CCN(CC)C(=O)C1CCN(S(=O)(=O)c2ccc3oc4ccccc4c3c2)CC1
category-label: NO

* * *

assayed-target: Sphingosine 1-phosphate receptor 1 (Homo sapiens, UniProt P21453)
test-name: potentiators of S1P1 agonist response, dose response, cell-based, potentiator mode, 60K MLSMR set (AID 466)
condition-label: inactive by the depositor's call
pEC50: −log10 of the molar value.
We begin with a simple list: items and their reported pEC50.

compound: CCN(CC)c1ccc(-n2c(C)c(C(C)=O)c(C(C)=O)c2C)cc1
pEC50: 4.98
//
compound: Oc1nnc(Sc2ncnc3sccc23)n1CCc1ccccc1
pEC50: 4.82
//
compound: CCOc1cc(-c2noc(-c3cccnc3)n2)ccc1OC
pEC50: 4.74
//
compound: O=C(Nc1nc(-c2ccc3c(c2)OCO3)cs1)c1ccncc1
pEC50: 4.92
//
compound: CCOC(=O)c1ccc2nc(NC(=O)c3ccco3)sc2c1
pEC50: 4.73
//
compound: O=C(OC1CCCCC1)c1ccc(NC(=O)c2ccco2)cc1
pEC50: 4.91
//
compound: CC1Cc2cc(-c3csc(NC(=O)Cc4cccs4)n3)ccc2N1S(C)(=O)=O (configuration not stated)
pEC50: 4.98
//
compound: CCc1ccc(N(CC)c2ncnc3nc[nH]c23)cc1
pEC50: 4.83
//
compound: C=CCn1c(SCC(=O)c2cccs2)nc2sc(CC)cc2c1=O
pEC50: 4.41
//
compound: CCc1ccc2c(COC(=O)c3n[nH]c4ccccc34)cc(=O)oc2c1
pEC50: 4.98
//
compound: CCCn1c(CNc2ccc(Br)cc2)nc2ccccc21
pEC50: 4.89
//
compound: CCCn1c(CN2CCN(c3cccc(Cl)c3)CC2)nc2c1c(=O)n(C)c(=O)n2C
pEC50: 4.73
//
compound: CCCc1cc2c(=O)c(-c3ccccn3)coc2cc1OC
pEC50: 4.43
//
compound: CCN(CC)S(=O)(=O)c1cc(C(=O)Nc2ccncc2)ccc1Cl
pEC50: 4.35
//
compound: COc1ccc(OCCCSc2ncccn2)cc1
pEC50: 4.32
//
compound: Cc1cccc(OCCCCc2c(C)n[nH]c2C)c1
pEC50: 4.97
//
compound: CCSc1nc(N2CCOCC2)c2c(c1C#N)CCCC2
pEC50: 4.51
//
compound: Cc1noc(C)c1S(=O)(=O)N(CC(=O)Nc1ccc2c(c1)OCCO2)c1ccc(C(C)C)cc1
pEC50: 4.80
//
compound: COc1ccc(-c2cc(C(=O)NC3CCCC3)no2)cc1OC
pEC50: 4.86
//
compound: COc1cccc(NC(=O)Nc2nnc(N3CCCCC3C)s2)c1 (configuration not stated)
pEC50: 4.94
//
compound: O=C(c1cc(-c2ccccc2)on1)N1CCN(Cc2ccc3c(c2)OCO3)CC1
pEC50: 4.23
//
compound: CCOC(=O)N1CCC(NC(=O)C2CCCN(Cc3nc(-c4cccc(Cl)c4)oc3C)C2)CC1 (configuration not stated)
pEC50: 4.70

* * *

We begin with a simple list: items and their reported EC50.
assayed-target: Sphingosine 1-phosphate receptor 1 (Homo sapiens)
test-name: potentiators of S1P1 agonist response, dose response, cell-based, potentiator mode, 60K MLSMR set (AID 466)
measure-name: EC50 (µM)

molecule: Cc1ccc(-n2c(C)cc(C(=O)CSc3nnnn3C)c2C)cc1
measure-name: EC50
measurement-qualifier: =
measured-number: 6.1

molecule: Cc1cc(N2CCN(c3nc4ccccc4s3)CC2)n2ncnc2n1
measure-name: EC50
measurement-qualifier: =
measured-number: 6.29

molecule: CCCc1cc(C(=O)Nc2sc(C)c(CC)c2C#N)no1
measure-name: EC50
measurement-qualifier: =
measured-number: 3.08

molecule: COC(=O)c1c(C)n(-c2ccc(OC)cc2)c2ccc(O)cc12
measure-name: EC50
measurement-qualifier: =
measured-number: 6.86

molecule: CCN=c1scc(-c2ccc3c(c2)NC(=O)CO3)n1N=C1CCCC1
measure-name: EC50
measurement-qualifier: =
measured-number: 7.16

molecule: COc1ccc(S(=O)(=O)N2CCN(c3ccc(C)cc3C)CC2)cc1OC
measure-name: EC50
measurement-qualifier: =
measured-number: 7.77

molecule: N#Cc1ccc(NC(=O)Nc2ccc(Cl)cc2)cc1
measure-name: EC50
measurement-qualifier: =
measured-number: 7.91

molecule: O=S(=O)(C/C(=C/CO)S(=O)(=O)c1ccccc1)c1ccccc1
measure-name: EC50
measurement-qualifier: =
measured-number: 8.68

molecule: CC1=NC(=O)NC(c2ccc(F)cc2)C1C(=O)OCc1ccc2c(c1)OCO2 (stereo unspecified)
measure-name: EC50
measurement-qualifier: =
measured-number: 0.631

molecule: CCCc1cc(C(=O)Nc2sc3c(c2C#N)CCC3)no1
measure-name: EC50
measurement-qualifier: >
measured-number: 95

molecule: CC(C)C(c1nnnn1Cc1ccccc1)N(Cc1ccco1)Cc1cccs1 (stereo unspecified)
measure-name: EC50
measurement-qualifier: >
measured-number: 95

* * *

assayed-target: UniProt:P21453
test-name: potentiators of S1P1 agonist response, dose response, cell-based, potentiator mode, 60K MLSMR set (AID 466)

compound: Cc1noc(/C=C/N(C)C)c1S(=O)(=O)N1CCc2ccccc21
assayed-target: UniProt:P21453
EC50: > 95 µM

compound: CCSc1nnc(NC(=O)C(Cc2ccccc2)n2cccc2)s1 (stereo not drawn)
assayed-target: UniProt:P21453
EC50: > 30 µM

compound: O=S1(=O)C=C(Sc2nc3ccccc3s2)c2ccccc21
assayed-target: UniProt:P21453
EC50: > 10 µM

* * *

assayed-target: Sphingosine 1-phosphate receptor 1 (Homo sapiens, UniProt P21453)
test-name: potentiators of S1P1 agonist response, dose response, cell-based, potentiator mode, 60K MLSMR set (AID 466)
We begin with a simple list: items and their reported EC50.

compound: Cc1ccc2[nH]c3c(N4CCN(Cc5ccc6c(c5)OCO6)CC4)ncnc3c2c1
units-symbol: µM
measurement-qualifier: >
EC50: 30
//
compound: COC(=O)c1ccc(OCC(O)Cn2nnc3ccccc32)cc1 (configuration not stated)
units-symbol: µM
measurement-qualifier: >
EC50: 95
//
compound: CN1/C(=C/C(=O)c2nc(S(C)(=O)=O)ncc2Cl)C(C)(C)c2ccccc21
units-symbol: µM
measurement-qualifier: =
EC50: 9.04
//
compound: Cn1c(-c2c(N)n(C3CCCC3)c3nc4ccccc4nc23)nc2ccccc21
units-symbol: µM
measurement-qualifier: =
EC50: 1.56
//
compound: O=C(NCc1ccccc1)N1CCN(c2ccc(Cl)c(Cl)c2)CC1
units-symbol: µM
measurement-qualifier: =
EC50: 6.67
//
compound: CC(C)(C)C1CCC2(CC1)C(C#N)=C(SCC(=O)Nc1ccccc1)NC(=O)C2C#N (configuration not stated)
units-symbol: µM
measurement-qualifier: =
EC50: 4.71
//
compound: O=C(Nc1ncc(Br)s1)C(Cc1ccccc1)n1cccc1 (configuration not stated)
units-symbol: µM
measurement-qualifier: =
EC50: 2.92
//
compound: CN(C)c1ccnc2sc3c(=O)n(Cc4ccccc4)cnc3c12
units-symbol: µM
measurement-qualifier: =
EC50: 3.37
//
compound: Cc1cc(C(=O)CC#N)c(C)n1-c1ccc(OC(F)F)cc1
units-symbol: µM
measurement-qualifier: >
EC50: 30
//
compound: COc1ccc(CN=O)cc1COc1ccc(NC(C)=O)cc1
units-symbol: µM
measurement-qualifier: >
EC50: 95
//
compound: O=C(Nc1ccc(N2CCCC2)c(Cl)c1)c1ccc(Br)o1
units-symbol: µM
measurement-qualifier: =
EC50: 3.76
//
compound: Clc1ccc(OCCN2CCN(c3ncnc4sccc34)CC2)cc1
units-symbol: µM
measurement-qualifier: =
EC50: 0.108
